Assay: Bioavailability in Cynomolgus Monkeys: plasma concentrations of parent acid by LC/MS/MS
Format: in vivo
Settings: both sexes, cynomolgus monkey, iv, 0.3 mg/kg, Compound A in plasma, .3 mg/kg
endpoint name: AUC (ng·h/mL)
Give bare numbers, in ng·h/mL.

Problem: Using the record for O=C(O)[C@@H]1C[C@H]2C[C@@H](CCc3nn[nH]n3)CC[C@H]2CN1 [Compound A] , state its measured AUC.
Result: 1080

---

Assay: Bioavailability in Dogs: plasma concentrations of parent acid by LC/MS/MS
Assay type: in vivo
Conditions: both sexes, dog, iv; Compound A in plasma, Beagle dogs, 1 mg/kg
endpoint name: Cmax (ng/mL)
Give bare numbers, in ng/mL.

Problem: Using the record for O=C(O)[C@@H]1C[C@H]2C[C@@H](CCc3nn[nH]n3)CC[C@H]2CN1 [Compound A] , state its measured Cmax.
Result: 2820
